The reported measurements were obtained from PubChem BioAssay (EPA / NIEHS).

Assay: CCTE_Mundy_HCI_Cortical_Synap_Neur_Matur_NeuriteSpotCountPerNeuron: CCTE's Synaptogenesis and Neurite Maturation Assay in rat cortical cells for Neurite Spot Count per Neuron Count, Mundy Lab (AID 2284215)
The source made the active and inactive calls. The calls were made as follows: active = hit-call score of the fitted dose curve at least 0.9, where 1 is the maximum; inactive = score below 0.9.
Outcomes: active, inactive

molecule: O=P1(N(CCCl)CCCl)NCCCO1 (centres undefined)
cat: inactive

molecule: CC(C)(C)c1ccccc1OP(=O)(Oc1ccccc1)Oc1ccccc1
cat: active

molecule: CCCCC(CC)COP(=O)(Oc1ccccc1)Oc1ccccc1 (centres undefined)
cat: inactive

molecule: CCOc1ccc(C(C)(C)COCc2cccc(Oc3ccccc3)c2)cc1
cat: active

====

Read-out: Cytochrome P450 3A4 (Homo sapiens) (UniProt P08684)
Sequence (P08684 whole entry, looked up): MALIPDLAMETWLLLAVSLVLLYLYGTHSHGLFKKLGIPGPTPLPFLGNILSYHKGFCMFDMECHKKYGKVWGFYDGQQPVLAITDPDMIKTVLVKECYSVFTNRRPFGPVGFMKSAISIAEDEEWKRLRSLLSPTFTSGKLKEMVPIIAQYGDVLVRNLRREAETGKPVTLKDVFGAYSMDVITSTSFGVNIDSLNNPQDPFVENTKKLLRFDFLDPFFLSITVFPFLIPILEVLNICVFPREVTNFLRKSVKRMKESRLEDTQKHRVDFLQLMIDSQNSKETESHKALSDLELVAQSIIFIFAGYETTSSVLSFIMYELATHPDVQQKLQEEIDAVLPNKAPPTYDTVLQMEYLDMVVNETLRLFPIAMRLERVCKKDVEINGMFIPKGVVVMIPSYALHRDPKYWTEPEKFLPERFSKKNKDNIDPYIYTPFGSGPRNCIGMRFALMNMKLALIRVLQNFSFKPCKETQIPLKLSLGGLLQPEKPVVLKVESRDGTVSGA
Assay: LTEA_HepaRG_CYP3A4: Life Technologies and Expression Analysis (LTEA) Assay for CYP3A4 using HepaRG (AID 2283487)
Details: mRNA level, 48 h; actives raise or lower the signal
Calls of active or inactive are those of the source. Rule for the calls: active = hit-call score of the fitted dose curve at least 0.9, where 1 is the maximum; inactive = score below 0.9.
Outcomes: active, inactive

compound: O=[N+]([O-])c1ccc(Cl)c(Cl)c1
cat: inactive

compound: OCC1CO1 (stereo unspecified)
cat: inactive

compound: CCOP(=S)(OCC)SCSCC
cat: active

compound: CCOP(=S)(Oc1ccc([N+](=O)[O-])cc1)c1ccccc1 (stereo unspecified)
cat: active

compound: CC(Cc1ccc(OCC(=O)O)cc1)NCC(O)c1csc(C(F)(F)F)n1 (stereo unspecified)
cat: inactive

compound: ClC(Cl)(Cl)c1ccccc1
cat: inactive

compound: O=P(Oc1ccccc1)(Oc1ccccc1)Oc1ccccc1
cat: active

compound: c1ccc2c(c1)Nc1ccccc1S2
cat: inactive

compound: ClC(Cl)c1ccccc1
cat: inactive

compound: Cc1cccc(N)c1
cat: inactive

compound: c1nc[nH]n1
cat: inactive

compound: ClC1=C(Cl)C2(Cl)C3C(Cl)C(Cl)CC3C1(Cl)C2(Cl)Cl (stereo unspecified)
cat: active

compound: O=C(O)C1C(C(=O)O)C2(Cl)C(Cl)=C(Cl)C1(Cl)C2(Cl)Cl (stereo unspecified)
cat: inactive

compound: CCOC(=O)c1ccccc1C(=O)OCC
cat: inactive

compound: CCCCN(CCCC)N=O
cat: inactive

compound: c1ccc(OP(Oc2ccccc2)Oc2ccccc2)cc1
cat: inactive

compound: CCCCN(CCCC)SN(C)C(=O)Oc1cccc2c1OC(C)(C)C2
cat: active

compound: CCCCc1ccccc1
cat: inactive

compound: [N-]=[N+]=[N-]
cat: inactive

compound: Cc1ccc(N)cc1N
cat: inactive

compound: O=[N+]([O-])c1ccccc1
cat: inactive

compound: Nc1ccc2ccccc2c1
cat: inactive

compound: CCC1(c2ccccc2)C(=O)N=C(O)NC1=O (stereo unspecified)
cat: active

compound: CC(C)(C)OOC(C)(C)C
cat: inactive

compound: CC(Cl)(Cl)C(=O)O
cat: inactive

compound: Nc1cc2c3c(c1)C(c1ccccc1)=N[C@@H](NC(=O)c1cccnc1)C(=O)N3CC2
cat: active

====

Test: ATG_NFI_CIS: Attagene CIS-FACTORIAL HepG2 Assay for human Nuclear Factor I (NFI) (AID 2282989)
Conditions: HepG2 cis-regulatory reporter, NFI response element transcription; actives raise or lower the signal
Active and inactive are the calls of the source. The calls were made as follows: active = hit-call score of the fitted dose curve at least 0.9, where 1 is the maximum; inactive = score below 0.9.
quantity.measured: outcome

compound.structure.string: N#Cc1ccc(O)cc1
quantity.measured: outcome
result: inactive
--
compound.structure.string: Cc1ccc2c(c1N)C(=O)c1ccccc1C2=O
quantity.measured: outcome
result: inactive
--
compound.structure.string: CCOP(=S)(OCC)SCSc1ccc(Cl)cc1
quantity.measured: outcome
result: inactive
--
compound.structure.string: O=P(Oc1ccccc1)(Oc1ccccc1)Oc1ccccc1
quantity.measured: outcome
result: inactive
--
compound.structure.string: Nc1ccc2ccccc2c1
quantity.measured: outcome
result: inactive

====

Target: sheep Cyclooxygenase-1 (Cox1), PTGS1 (gene 443551)
Test: NVS_ENZ_oCOX1: NovaScreen (NVS) Enzymatic Assay for sheep Cyclooxygenase-1 (Cox1) (AID 2283239);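 also: actives reduce cyclooxygenase activity so potencies are for inhibitors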
Inconclusive results are not listed. Activity calls are given as the source filed them. How the source made its calls: active means hit-call score of the fitted dose curve at least 0.9, where 1 is the maximum; inconclusive means response in the unintended direction; inactive means score below 0.9.
Outcomes: Yes (active), No (inactive)

compound.structure.string: CCOP(=S)(S)OCC
assay.target: sheep Cyclooxygenase-1 (Cox1), PTGS1 (gene 443551)
cat: No

compound.structure.string: O=c1[nH]c2ccccc2c(=O)o1
assay.target: sheep Cyclooxygenase-1 (Cox1), PTGS1 (gene 443551)
cat: Yes

compound.structure.string: Nc1ccc(Cl)cc1
assay.target: sheep Cyclooxygenase-1 (Cox1), PTGS1 (gene 443551)
cat: No

compound.structure.string: O=c1ssc(Cl)c1Cl
assay.target: sheep Cyclooxygenase-1 (Cox1), PTGS1 (gene 443551)
cat: No

compound.structure.string: CCOP(=S)(OCC)SCSCC
assay.target: sheep Cyclooxygenase-1 (Cox1), PTGS1 (gene 443551)
cat: No

compound.structure.string: CC1(C)CN=C(NN=C(/C=C/c2ccc(C(F)(F)F)cc2)/C=C/c2ccc(C(F)(F)F)cc2)NC1
assay.target: sheep Cyclooxygenase-1 (Cox1), PTGS1 (gene 443551)
cat: Yes

====

Read-out: Cytochrome P450 (CYP1A1), CYP1A1 (gene 1543)
Experiment: LTEA_HepaRG_CYP1A1: Life Technologies and Expression Analysis (LTEA) Assay for Cytochrome P450 (CYP1A1) using HepaRG (AID 2283454)
Conditions: mRNA level, 48 h; actives raise or lower the signal
The source made the active and inactive calls. How the source made its calls: active means hit-call score of the fitted dose curve at least 0.9, where 1 is the maximum; inactive means score below 0.9.
Outcomes: active, inactive

compound: [N-]=[N+]=[N-]
cat: inactive
//
compound: CN(C)C(=O)Cl
cat: active
//
compound: CCOC(=O)c1ccccc1C(=O)OCC
cat: active
//
compound: O=[N+]([O-])c1ccccc1
cat: active
//
compound: CCN(CC)c1ccccc1
cat: active
//
compound: ClC(Cl)(Cl)c1ccccc1
cat: inactive
//
compound: CCCCN(CCCC)N=O
cat: inactive
//
compound: ClC1=C(Cl)C2(Cl)C3C(Cl)C(Cl)CC3C1(Cl)C2(Cl)Cl (stereo unspecified)
cat: active
//
compound: CSC(C)(C)C=NO
cat: inactive
//
compound: O=C(O)C1C(C(=O)O)C2(Cl)C(Cl)=C(Cl)C1(Cl)C2(Cl)Cl (stereo unspecified)
cat: inactive
//
compound: CCOS(=O)(=O)OCC
cat: inactive
//
compound: Cc1ccc([N+](=O)[O-])cc1C
cat: active
//
compound: COCCOCCO
cat: inactive
//
compound: Cc1cccc(N)c1
cat: active
//
compound: O=C(O)C(Cl)Cl
cat: inactive
//
compound: CCCCCCCc1ccc(O)cc1
cat: inactive
//
compound: Cc1ccc(N)cc1N
cat: active
//
compound: CC(Cc1ccc(OCC(=O)O)cc1)NCC(O)c1csc(C(F)(F)F)n1 (stereo unspecified)
cat: active
//
compound: ClC(Cl)c1ccccc1
cat: active
//
compound: CCCCN(CCCC)SN(C)C(=O)Oc1cccc2c1OC(C)(C)C2
cat: active
//
compound: O=P1(N(CCCl)CCCl)NCCCO1 (stereo unspecified)
cat: active
//
compound: c1cc2c3c(cccc3c1)CC2
cat: active
//
compound: CCNc1nc(Cl)nc(NC(C)(C)C)n1
cat: active
//
compound: CC(C)(C)OOC(C)(C)C
cat: inactive
//
compound: CCCCc1ccccc1
cat: active
//
compound: CCC(C)(C)c1ccc(O)cc1
cat: inactive

====

Read-out: Tissue Factor, F3 (gene 2152)
Experiment: BSK_LPS_TissueFactor: BioMAP Diversity Plus: LPS Assay for Tissue Factor Biomarker Activity (AID 2283084)
Conditions: primary human HUVEC with PBMC; actives raise or lower the signal
Activity calls are given as the source filed them. Rule for the calls: active = hit-call score of the fitted dose curve at least 0.9, where 1 is the maximum; inactive = score below 0.9.

compound: CCOP(=S)(OCC)SCS(=O)(=O)CC
AC50: inactive
--
compound: CCOP(=S)(S)OCC
AC50: inactive
--
compound: CC(Cl)CN(C)C (centres undefined)
AC50: inactive
--
compound: c1cc2c3c(cccc3c1)CC2
AC50: inactive
--
compound: CC(C)(C)c1ccccc1OP(=O)(Oc1ccccc1)Oc1ccccc1
AC50: inactive
--
compound: OCC(F)(F)OC(F)(F)C(F)(F)OC(F)(F)C(F)(F)OC(F)(F)CO
AC50: inactive
--
compound: CCCCC(CC)COC(=O)c1c(Br)c(Br)c(Br)c(Br)c1C(=O)OCC(CC)CCCC (centres undefined)
AC50: inactive
--
compound: Nc1ccc(Cl)cc1
AC50: inactive
--
compound: O=c1ssc(Cl)c1Cl
AC50: 8.4 µM (active)
--
compound: O=S1(=O)OCC2C(CO1)C1(Cl)C(Cl)=C(Cl)C2(Cl)C1(Cl)Cl (centres undefined)
AC50: inactive
--
compound: COP(=O)(CCC(=O)NCO)OC
AC50: inactive
--
compound: ClC1=C(Cl)C2(Cl)C3C(Cl)C(Cl)CC3C1(Cl)C2(Cl)Cl (centres undefined)
AC50: 31.5 µM (active)
--
compound: CCCCCCCc1ccc(O)cc1
AC50: 38.1 µM (active)
--
compound: OCC(F)(F)OC(F)(F)C(F)(F)OC(F)(F)CO
AC50: inactive
